Measured values drawn from patent US20250352550A1 for this set.

Reported IC50, DDR1 (Homo sapiens).
Supply the numeric figure in nM, leaving out any unit text.

# compound, IC50, nM
measured = [
    ("O=[N+]([O-])c1cccc(-c2coc3cc(-c4ccc(N5CCNCC5)cc4)cnc23)c1 [Preparative Example 40]", 98),
    ("CN1CCN(c2ccc(-c3cnc4c(-c5cccc(C(=O)c6ccccc6)c5)coc4c3)cc2)CC1 [Preparative Example 133]", 472),
    ("Cn1ccc(-c2coc3cc(-c4ccc(N5CCNCC5)cc4)cnc23)n1 [Preparative Example 37]", 222),
    ("c1cc(-c2coc3cc(-c4ccc(OCCN5CCCCC5)cc4)cnc23)ccn1 [Preparative Example 171]", 365),
]

Recorded IC50 for CCNC(=O)Cc1cccc(-c2coc3cc(-c4ccc(N5CCNCC5)cc4)cnc23)c1 [Preparative Example 152] with DDR1 (Homo sapiens), please?
73

GET /values?readout=IC50&system=DDR1 (Homo sapiens)&item= CN(C)c1cccc(-c2coc3cc(-c4ccc(N5CCNCC5)cc4)cnc23)c1 [Preparative Example 131]
385

Form field - read-out: IC50; system: DDR1 (Homo sapiens); submitted item: c1cc(-c2coc3cc(-c4ccc(N5CCNCC5)nc4)cnc23)ccn1 [Preparative Example 25]
Sequence (Q08345 19-913): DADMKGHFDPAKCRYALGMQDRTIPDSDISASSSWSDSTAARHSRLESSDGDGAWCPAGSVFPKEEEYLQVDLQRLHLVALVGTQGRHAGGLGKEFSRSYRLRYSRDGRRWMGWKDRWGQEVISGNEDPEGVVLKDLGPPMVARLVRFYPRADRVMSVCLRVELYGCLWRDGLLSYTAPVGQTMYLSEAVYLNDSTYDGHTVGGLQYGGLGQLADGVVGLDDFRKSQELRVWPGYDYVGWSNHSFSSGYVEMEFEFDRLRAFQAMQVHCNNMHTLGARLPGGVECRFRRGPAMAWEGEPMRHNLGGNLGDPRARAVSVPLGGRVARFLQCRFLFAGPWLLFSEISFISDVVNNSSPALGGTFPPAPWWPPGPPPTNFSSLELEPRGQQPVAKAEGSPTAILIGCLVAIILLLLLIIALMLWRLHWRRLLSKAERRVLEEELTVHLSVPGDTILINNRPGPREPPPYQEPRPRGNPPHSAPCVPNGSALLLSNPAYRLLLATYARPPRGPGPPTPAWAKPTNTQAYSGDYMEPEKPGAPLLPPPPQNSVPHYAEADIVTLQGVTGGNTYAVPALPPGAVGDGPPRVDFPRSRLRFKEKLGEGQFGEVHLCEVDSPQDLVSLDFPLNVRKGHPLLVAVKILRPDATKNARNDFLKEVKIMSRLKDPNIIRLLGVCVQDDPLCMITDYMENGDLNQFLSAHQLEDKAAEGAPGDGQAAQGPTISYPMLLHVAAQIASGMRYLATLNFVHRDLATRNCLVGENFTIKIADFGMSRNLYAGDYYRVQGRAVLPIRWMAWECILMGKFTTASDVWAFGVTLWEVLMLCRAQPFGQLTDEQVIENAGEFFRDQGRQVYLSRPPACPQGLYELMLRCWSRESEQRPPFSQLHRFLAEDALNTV
791
